I'd be grateful if you could share measured growth for these entries.
Test system: UO-31 renal
PROTOCOL_DETAILS: NCI-60 one-dose screen, 48 h (100 = growth as untreated, 0 = no growth, -100 = all killed)
PROTOCOL_CONDITIONS: 10 µM unless noted
Method: Growth inhibition of the UO-31 human tumor cell line is measured as a screen for anti-cancer activity. Cells are grown in 96 well plates and exposed to the test compound for 48 hours. Compounds are tested at a single concentration, which is 10^-5 M for most compounds. The reported endpoint is percent growth (GI% or GIPRCNT), where numbers from 0 - 100% represent growth inhibition, and numbers from -100% - 0 represent cell death. For example, a value of 40 represents 60% growth inhibition. […]
The panel holds about 83,000 compounds, 20% with a hit somewhere; the sample as a whole holds those more often. The source made the active and inactive calls. Rule for the calls: active = growth percent below 10; inactive = the rest.

Reported growth ( C/C(=C\c1cc(C(F)(F)F)nn1CCNC(=O)OC(C)(C)C)[C@@H]1C[C@@H]2O[C@]2(C)CCC[C@H](C)[C@H](O)[C@@H](C)C(=O)C(C)(C)[C@@H](O)CC(=O)O1 ) = 49.5% (inactive)

Reported growth ( COc1cc(/C=C\c2cc(OC)c(OC)c(OC)c2)cc(NS(=O)(=O)c2cccc(Cl)c2)c1OC ) = 32.1% (inactive)

Reported growth ( COC(=O)C1CCC(NC(=O)c2csc([C@@H](C[C@H](C(C)C)N(C)C(=O)[C@@H](NC(=O)[C@H]3CCCCN3C)C(C)C)OC(C)=O)n2)CC1 (some centres not stated) ) = 60.8% (inactive)

Reported growth ( C=C1C(=O)O[C@H]2[C@H]1CC/C(COC(=O)C(=O)c1cn(Cc3ccccc3)c3ccccc13)=C\CC[C@@]1(C)O[C@@H]21 ) = -91.3% (active)

Reported growth ( COc1ccc(/C(C)=C(\c2ccc(OCCN3CCOCC3)cc2)c2ccc(OC(=O)Cc3ccccc3)cc2)cc1 ) = 97% (inactive)

Reported growth ( CCC1CC(O)c2c(O)c3c(c(O)c2C1O)C(=O)c1cccc(O)c1C3=O (configuration not stated) (tested in a mixture with another compound) ) = -32.9% (active)

Reported growth ( CC1=C(CN)C2=C(C)C3(CC3)[C@@](C)(O)C(=O)C2=C1 ) = 90.3% (inactive)
